Values were extracted from patent US7772228B2.

- testMethodNotes: Clinical trial 005, rifalazil concentration in plasma of tuberculosis patients
- Format: in vivo, human
- reportedConditions: human, plasma, INH + 10 mg KRM; Day 11; read-out: Rifalazil Concentration in Plasma, Mean
quantity: concentration at 11 day (ng/mL)
// return numeric value only (unit: ng/mL, not printed)

Bench note: what concentration at 11 day did CO[C@H]1/C=C/O[C@@]2(C)Oc3c(C)c(O)c4c(=O)c(c5oc6cc(N7CCN(CC(C)C)CC7)cc(O)c6nc-5c4c3C2=O)NC(=O)/C(C)=C\C=C\[C@H](C)[C@H](O)[C@@H](C)[C@@H](O)[C@@H](C)[C@H](OC(C)=O)[C@@H]1C [Rifalazil] show?
2.4

----------
- testMethodNotes: Clinical trial 005, rifalazil concentration in plasma of tuberculosis patients
- Assay type: in vivo, human
- reportedConditions: human, plasma, INH + 10 mg KRM; Hour 0; read-out: Rifalazil Concentration in Plasma, Max
quantity: concentration at 0 h
For clarity, give the value followed by its unit.

I have this compound here, CO[C@H]1/C=C/O[C@@]2(C)Oc3c(C)c(O)c4c(=O)c(c5oc6cc(N7CCN(CC(C)C)CC7)cc(O)c6nc-5c4c3C2=O)NC(=O)/C(C)=C\C=C\[C@H](C)[C@H](O)[C@@H](C)[C@@H](O)[C@@H](C)[C@H](OC(C)=O)[C@@H]1C , and I need its recorded concentration at 0 h.
0 ng/mL

----------
- testMethodNotes: Clinical trial 005, rifalazil concentration in plasma of tuberculosis patients
- Type: in vivo, human
- reportedConditions: human, plasma, INH + 25 mg KRM; Hour 72; read-out: Rifalazil Concentration in Plasma, Med
quantity: concentration at 72 h
Include the unit right after the number.

Reported concentration at 72 h for CO[C@H]1/C=C/O[C@@]2(C)Oc3c(C)c(O)c4c(=O)c(c5oc6cc(N7CCN(CC(C)C)CC7)cc(O)c6nc-5c4c3C2=O)NC(=O)/C(C)=C\C=C\[C@H](C)[C@H](O)[C@@H](C)[C@@H](O)[C@@H](C)[C@H](OC(C)=O)[C@@H]1C : what is it?
2.7 ng/mL

----------
- testMethodNotes: clinical
- reportedConditions: human, in vivo, 300 mg
quantity: half-life (h)
# unit: h | format: bare number

Endpoint output: half-life of CO[C@H]1/C=C/O[C@@]2(C)Oc3c(C)c(O)c4c(=O)c(c5oc6cc(N7CCN(CC(C)C)CC7)cc(O)c6nc-5c4c3C2=O)NC(=O)/C(C)=C\C=C\[C@H](C)[C@H](O)[C@@H](C)[C@@H](O)[C@@H](C)[C@H](OC(C)=O)[C@@H]1C . Value?
206

----------
- testMethodNotes: Clinical trial 005, rifalazil concentration in plasma of tuberculosis patients
- Format: in vivo, human
- reportedConditions: human, plasma, INH + 10 mg KRM; Hour 24; read-out: Rifalazil Concentration in Plasma, Med
quantity: concentration at 24 h (ng/mL)
Note: unit ng/mL is implicit; provide only the numeric part.

Requested field: concentration at 24 h. Item: CO[C@H]1/C=C/O[C@@]2(C)Oc3c(C)c(O)c4c(=O)c(c5oc6cc(N7CCN(CC(C)C)CC7)cc(O)c6nc-5c4c3C2=O)NC(=O)/C(C)=C\C=C\[C@H](C)[C@H](O)[C@@H](C)[C@@H](O)[C@@H](C)[C@H](OC(C)=O)[C@@H]1C
3.55

----------
- testMethodNotes: Clinical trial 005, rifalazil concentration in plasma of tuberculosis patients
- Type: in vivo, human
- reportedConditions: human, plasma, INH + 25 mg KRM; Hour 9; read-out: Rifalazil Concentration in Plasma, Min
- Method: Definite diagnosis and evaluation of treatment efficacy requires direct examination of sputum for the presence of M. tuberculosis. The extent of M. tuberculosis infection is determined by number of bacteria able to form colonies and is expressed as colony forming units. […] The CFU, typically expressed as Log10, have therefore important diagnostic and treatment evaluative value. Table 21 summarizes the plasma concentrations data of rifalazil measured in patients that received rifalazil at zero hour. […]
quantity: concentration at 9 h (ng/mL)
Numeric only. Scale: ng/mL

Query (molecule): CO[C@H]1/C=C/O[C@@]2(C)Oc3c(C)c(O)c4c(=O)c(c5oc6cc(N7CCN(CC(C)C)CC7)cc(O)c6nc-5c4c3C2=O)NC(=O)/C(C)=C\C=C\[C@H](C)[C@H](O)[C@@H](C)[C@@H](O)[C@@H](C)[C@H](OC(C)=O)[C@@H]1C ; field requested: concentration at 9 h
4.2

----------
- testMethodNotes: Clinical trial 005, rifalazil concentration in plasma of tuberculosis patients
- Assay type: in vivo, human
- reportedConditions: human, plasma, INH + 25 mg KRM; Hour 0; read-out: Rifalazil Concentration in Plasma, Mean
quantity: concentration at 0 h (ng/mL)
The answer is to be given in ng/mL; state only the numeric part.

Look at this molecule and give its reported concentration at 0 h. CO[C@H]1/C=C/O[C@@]2(C)Oc3c(C)c(O)c4c(=O)c(c5oc6cc(N7CCN(CC(C)C)CC7)cc(O)c6nc-5c4c3C2=O)NC(=O)/C(C)=C\C=C\[C@H](C)[C@H](O)[C@@H](C)[C@@H](O)[C@@H](C)[C@H](OC(C)=O)[C@@H]1C
0

----------
- testMethodNotes: Clinical trial 005, rifalazil concentration in plasma of tuberculosis patients
- Assay type: in vivo, human
- reportedConditions: human, plasma, INH + 10 mg KRM; Hour 48; read-out: Rifalazil Concentration in Plasma, Mean
quantity: concentration at 48 h (ng/mL)
Kindly provide the numeric value in ng/mL only, without the unit symbol.

Any idea what concentration at 48 h was measured for CO[C@H]1/C=C/O[C@@]2(C)Oc3c(C)c(O)c4c(=O)c(c5oc6cc(N7CCN(CC(C)C)CC7)cc(O)c6nc-5c4c3C2=O)NC(=O)/C(C)=C\C=C\[C@H](C)[C@H](O)[C@@H](C)[C@@H](O)[C@@H](C)[C@H](OC(C)=O)[C@@H]1C ?
1.4

----------
- testMethodNotes: Clinical trial 005, rifalazil concentration in plasma of tuberculosis patients
- Format: in vivo, human
- reportedConditions: human, plasma, INH + 10 mg KRM; Hour 5; read-out: Rifalazil Concentration in Plasma, Med
quantity: concentration at 5 h (ng/mL)
Report the figure in ng/mL without appending any unit label.

Item under review: CO[C@H]1/C=C/O[C@@]2(C)Oc3c(C)c(O)c4c(=O)c(c5oc6cc(N7CCN(CC(C)C)CC7)cc(O)c6nc-5c4c3C2=O)NC(=O)/C(C)=C\C=C\[C@H](C)[C@H](O)[C@@H](C)[C@@H](O)[C@@H](C)[C@H](OC(C)=O)[C@@H]1C [Rifalazil] . Reported concentration at 5 h?
11.9

----------
- testMethodNotes: Clinical trial 005, rifalazil concentration in plasma of tuberculosis patients
- Assay type: in vivo, human
- reportedConditions: human, plasma, INH + 25 mg KRM; Hour 2; read-out: Rifalazil Concentration in Plasma, Max
quantity: concentration at 2 h (ng/mL)
// return numeric value only (unit: ng/mL, not printed)

Given the entry CO[C@H]1/C=C/O[C@@]2(C)Oc3c(C)c(O)c4c(=O)c(c5oc6cc(N7CCN(CC(C)C)CC7)cc(O)c6nc-5c4c3C2=O)NC(=O)/C(C)=C\C=C\[C@H](C)[C@H](O)[C@@H](C)[C@@H](O)[C@@H](C)[C@H](OC(C)=O)[C@@H]1C [Rifalazil] , report its measured concentration at 2 h.
26.4

----------
- testMethodNotes: Clinical trial 005, rifalazil concentration in plasma of tuberculosis patients
- Format: in vivo, human
- reportedConditions: human, plasma, 10 mg, INH + 10 mg KRM; Day 15; read-out: Rifalazil Concentration in Plasma, Med
- Protocol: Definite diagnosis and evaluation of treatment efficacy requires direct examination of sputum for the presence of M. tuberculosis. The extent of M. tuberculosis infection is determined by number of bacteria able to form colonies and is expressed as colony forming units. […] The CFU, typically expressed as Log10, have therefore important diagnostic and treatment evaluative value. Table 21 summarizes the plasma concentrations data of rifalazil measured in patients that received rifalazil at zero hour. […]
quantity: concentration at 15 day (ng/mL)
Dear colleague, please return just the value in ng/mL, with no unit written.

Request the reported concentration at 15 day associated with CO[C@H]1/C=C/O[C@@]2(C)Oc3c(C)c(O)c4c(=O)c(c5oc6cc(N7CCN(CC(C)C)CC7)cc(O)c6nc-5c4c3C2=O)NC(=O)/C(C)=C\C=C\[C@H](C)[C@H](O)[C@@H](C)[C@@H](O)[C@@H](C)[C@H](OC(C)=O)[C@@H]1C
3

----------
- testMethodNotes: Clinical trial 005, rifalazil concentration in plasma of tuberculosis patients
- Assay type: in vivo, human
- reportedConditions: human, plasma, INH + 10 mg KRM; Hour 24; read-out: Rifalazil Concentration in Plasma, Max
quantity: concentration at 24 h (ng/mL)
Report as a plain number; the unit ng/mL is understood.

Which value of concentration at 24 h has been reported for CO[C@H]1/C=C/O[C@@]2(C)Oc3c(C)c(O)c4c(=O)c(c5oc6cc(N7CCN(CC(C)C)CC7)cc(O)c6nc-5c4c3C2=O)NC(=O)/C(C)=C\C=C\[C@H](C)[C@H](O)[C@@H](C)[C@@H](O)[C@@H](C)[C@H](OC(C)=O)[C@@H]1C in the records?
5
